The values you see were collected from PubChem BioAssay (NCATS).

System: CP252
Assay: qHTS profiling for inhibitors of Plasmodium falciparum proliferation (AID 504749); note: nearly all actives have a fitted effect of over 60% in size; note: potency is the fitted concentration of half-maximal effect
Conditions: P. falciparum in erythrocytes, SYBR Green DNA, 72 h; series mostly up to 28.7 µM
Protocol: NIH National Institute of Allergy and Infectious Diseases [NIAID] NIH Chemical Genomics Center [NCGC] […] Because mature erythrocytes lack DNA, only Plasmodium-derived DNA is detected. NCGC Assay Protocol Summary: The SYBR Green viability assay was adapted from a method described previously (Plouffe et al., 2008). […] The following morning, fluorescence intensity at 485(14) nm excitation and 535(25) nm emission wavelengths was measured on an EnVision (Perkin Elmer) plate reader. […]
Inconclusive results are not listed. The source made the active and inactive calls. Calls come from the whole dose curve; as a rule, active = well fitted inhibition curve with a large enough effect; inconclusive = small, poorly fitted or top-dose-only effect; inactive = flat fitted curve, though single readings scatter.
recorded.metric: Potency

O=S(=O)(O)NC1CCCCC1 :: inactive
Cc1ccc2nc(N)[nH]c(=O)c2c1Sc1ccncc1 :: 1.58 µM (active)
CC1(C)OC(=O)NC1=O :: inactive
O=C(O)COc1nn(Cc2ccccc2)c2ccccc12 :: inactive
CCCCN(CCCC)CCCOC(=O)c1ccc(N)cc1 :: inactive
CCn1cc(C(=O)O)c(=O)c2cnc(N3CCNCC3)nc21 :: inactive
